# TARGET: human GPR119 receptor (Homo sapiens)
# Construct: host or cells: GeneBLAzer T-Rex GPR 119 CHO-K1 DA cells (CHO-K1)
# Sequence (Q8TDV5 whole entry): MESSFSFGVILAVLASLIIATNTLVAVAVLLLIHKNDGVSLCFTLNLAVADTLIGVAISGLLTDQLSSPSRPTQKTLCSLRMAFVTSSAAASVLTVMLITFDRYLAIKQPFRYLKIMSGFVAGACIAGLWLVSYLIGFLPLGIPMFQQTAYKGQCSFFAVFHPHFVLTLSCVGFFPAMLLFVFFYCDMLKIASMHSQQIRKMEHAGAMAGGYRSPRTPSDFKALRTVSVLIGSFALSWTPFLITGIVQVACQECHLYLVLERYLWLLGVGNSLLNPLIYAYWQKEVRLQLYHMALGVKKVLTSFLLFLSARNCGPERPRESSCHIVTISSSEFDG
# METHOD_DESCRIPTION: Activity test for human GPR119 receptor (GeneBLAzer T-Rex GPR 119 CHO-K1 DA cells, fluorescence reporter)
# Format: cell-based
# REPORTED_CONDITIONS: test compound conc. 1 μM; human GPR119 CHO-K1 reporter cells, 5 hours treatment; ratio to vehicle control well; read-out: % Activation
activity at 1 µM less than 400% is 1.0; activity at 1 µM greater than or equal to 400% is 0.0.

Example results:
> print(dat)
                                 cpd.smiles                                target  cat
1  CC(C)(F)CN1CCC(COc2ccc(-c3ccc(C(=O)N4CCC[C@H]4C(N)=O)c(F)c3)cc2)CC1  human GPR119 receptor (Homo sapiens)  1.0
2  CCC(F)(CC)CN1CCC(COc2ccc(-c3ccc(C(=O)N4CCC[C@H]4C(N)=O)cc3F)cc2C#N)CC1  human GPR119 receptor (Homo sapiens)  0.0
3  CS(=O)(=O)c1ccc(-c2ccc(OCC3CCN(CC4(C(F)(F)F)CCC4)CC3)cc2)cc1  human GPR119 receptor (Homo sapiens)  1.0
4  CC(C)(F)CN1CCC(COc2ccc(-c3ccc(C(=O)N4CCC[C@H]4C(N)=O)c(F)c3)c(C#N)c2)CC1  human GPR119 receptor (Homo sapiens)  1.0
5  CC(C)(CN1CCC(COc2ccc(-c3ccc(C(=O)N4CCC[C@@H](O)C4)cc3)cn2)CC1)C(F)(F)F  human GPR119 receptor (Homo sapiens)  1.0

## Input Determine if `CCC(F)(CC)CN1CCC(COc2ccc(-c3ccc(C(=O)N4CCC[C@H]4C(N)=O)c(F)c3)cc2C#N)CC1` shows activity at 1 µM strictly lower than 400%.
## Output 1.0

====

# TARGET: human GPR119 receptor (Homo sapiens)
# Construct: host or cells: GeneBLAzer T-Rex GPR 119 CHO-K1 DA cells (CHO-K1)
# METHOD_DESCRIPTION: Activity test for human GPR119 receptor (GeneBLAzer T-Rex GPR 119 CHO-K1 DA cells, fluorescence reporter)
# Format: cell-based
# REPORTED_CONDITIONS: test compound conc. 1 μM; human GPR119 CHO-K1 reporter cells, 5 hours treatment; ratio to vehicle control well; read-out: % Activation
activity at 1 µM listing for selected molecules.
Number first, unit second: that is the form wanted.

Item `CC(=O)N1CCN(C(=O)c2ccc(-c3ccc(OCC4CCN(CC(C)(C)F)CC4)cc3)cc2)CC1` ; assay system human GPR119 receptor (Homo sapiens); activity at 1 µM reported as 210%

With human GPR119 receptor (Homo sapiens) as the test system, `CC(C)(F)CN1CCC(COc2ccc(-c3ccc(C(=O)N4CCOCC4)cc3)cc2)CC1` showed activity at 1 µM of 244%

# `CS(=O)(=O)c1ccc(-c2ccc(OCC3CCN(CC4(C(F)(F)F)CC4)CC3)cc2)cc1` with human GPR119 receptor (Homo sapiens): activity at 1 µM is 298%

Summary: `NC(=O)[C@@H]1CCCN1C(=O)c1ccc(-c2ccc(OCC3CCN(CC4(C(F)(F)F)CCC4)CC3)nc2)cc1F` , human GPR119 receptor (Homo sapiens), activity at 1 µM = 269%

I looked up `O=C(c1ccc(-c2ccc(OCC3CCN(CC4(C(F)(F)F)CC4)CC3)nc2)cc1)N1CCC(CO)CC1` and its activity at 1 µM for human GPR119 receptor (Homo sapiens) was 288%

Query `CC(C)(F)CN1CCC(COc2ccc(-c3ccc(C(=O)N4CCC[C@@H]4CO)c(F)c3)cc2)CC1` on human GPR119 receptor (Homo sapiens); activity at 1 µM returned: 220%

For `CC(C)(F)CN1CCC(COc2ccc(-c3ccc(C(=O)N4CC[C@@H](O)C4)c(F)c3)nc2)CC1` on human GPR119 receptor (Homo sapiens), measured activity at 1 µM was 260%

The value of activity at 1 µM recorded for `CC(C)(F)CN1CCC(COc2ccc(-c3ccc(C(=O)N4CCC(F)(F)C4)cc3)cc2)CC1` when tested on human GPR119 receptor (Homo sapiens) reads 229%

Item: `CC(C)(F)CN1CCC(COc2ccc(-c3ccc(C(=O)N4CC[C@H](O)C4)cc3)cc2)CC1` | System: human GPR119 receptor (Homo sapiens) | activity at 1 µM: 219%

Tested on human GPR119 receptor (Homo sapiens), the item `CC(C)(F)CN1CCC(COc2ccc(-c3ccc(C(=O)N4CCC[C@H]4C(N)=O)c(F)c3)nc2)CC1` showed activity at 1 µM equal to 280%

Log: human GPR119 receptor (Homo sapiens), molecule `CN(C)C(=O)c1ccc(-c2ccc(OCC3CCN(CC(C)(C)F)CC3)cc2)cc1` , activity at 1 µM = 243%

Measured on human GPR119 receptor (Homo sapiens), `O=C(c1ccc(-c2cnc(OCC3CCN(CC4(C(F)(F)F)CCC4)CC3)cn2)cc1F)N1CCC[C@@H](O)C1` has a documented activity at 1 µM of 490%

Measured activity at 1 µM for this entry `O=C(c1ccc(-c2ccc(OCC3CCN(CC4(C(F)(F)F)CCC4)CC3)cc2)cc1)N1CCC[C@@H](O)C1` on human GPR119 receptor (Homo sapiens): 296%

For the molecule `CC(C)(F)CN1CCC(COc2ccc(-c3ccc(C(=O)N4CCC[C@H]4C(N)=O)c(F)c3)cn2)CC1` , the measured activity at 1 µM on human GPR119 receptor (Homo sapiens) was 248%
